- procedureText: Human HepG2 cell viability assay in 384 well format
- Type: toxicity, cell-based
- Set-up: dose 125 nL, time 70.5 hour; concentration not given beside the values
- setupConditions: HepG2 cells, read-out: Inhibition
measuredEndpoint: cytotoxicity at 70.5 h (%)
// note: answer is a bare numeric in %

Task: Answer with reported cytotoxicity at 70.5 h of Cc1ccc(C)c(C(=O)N2CCOC(CCN(C)C)C2)c1 (centres undefined)
Output: -9.2

Task: Query cytotoxicity at 70.5 h for `c1cc(-c2nnc(C3(c4ccc5c(c4)OCO5)CCOCC3)o2)ccn1`
Output: -11.2

Task: Please report the measured cytotoxicity at 70.5 h for `O[C@@H]1Cc2ccccc2[C@@H]1Nc1ncccc1F`
Output: -9.59

Task: Give cytotoxicity at 70.5 h for the following compound: `Cn1cc(C(=O)NCCc2csc(-c3ccccc3)n2)ccc1=O`
Output: -2.1

Task: Answer with the recorded cytotoxicity at 70.5 h of CCc1nc2n(n1)CC(Nc1cc(C)nc3ncnn13)CC2 (centres undefined) only.
Output: -5.27

Task: Please list cytotoxicity at 70.5 h recorded for the compound CC(c1ccc(Cl)cc1)N1CCN(CCCS(N)(=O)=O)CC1 (centres undefined)
Output: 35.8

Task: Supply cytotoxicity at 70.5 h value. Item: `Cc1ccc2nc(C)c(C)c(C(=O)NCCCn3ccnn3)c2c1`
Output: 3.79

Task: Report measured cytotoxicity at 70.5 h; entry is `CCCc1cc(=O)[nH]c(SCc2ccccn2)n1`
Output: -2.16

Task: Look up and report measured cytotoxicity at 70.5 h for this entry: `N#Cc1csc(CNCCOc2ncccc2Cl)c1`
Output: 8.52

Task: Look up and state reported cytotoxicity at 70.5 h for `COc1ccccc1CN1C[C@@H]2CN(C(C)=O)CCO[C@@H]2C1`
Output: -1.68

Task: Give reported cytotoxicity at 70.5 h value for CCn1cc2c(n1)CN(S(=O)(=O)c1cccnc1)CC2COC (centres undefined)
Output: 1.06

Task: Supply reported cytotoxicity at 70.5 h belonging to this compound: COc1cccc(C(=O)N2CCCC(c3cc(C)[nH]n3)C2)c1OC (centres undefined)
Output: -17.6

Task: Give the measured cytotoxicity at 70.5 h for Cc1cccc(NC(=O)c2nn(C3CCS(=O)(=O)C3)c3c2CCCC3)n1 (centres undefined)
Output: -27.2

Task: Read off the recorded cytotoxicity at 70.5 h for `COCCn1c(CN2CCCCO2)cnc1S(=O)(=O)CC1CCCCC1`
Output: -2.46

Task: For the compound `O=C(c1cccc2ncccc12)N1CCCN(c2cccnn2)CC1` , report cytotoxicity at 70.5 h.
Output: -11.1

Task: Report cytotoxicity at 70.5 h for `COc1ccc2[nH]cc(-c3ccnc(NC4CCCC4)n3)c2c1`
Output: -0.782

Task: For the compound CC(=O)N1N=C(c2cccs2)OC1C(=O)Nc1ccccc1 (centres undefined) , report cytotoxicity at 70.5 h.
Output: -8.33

Task: Quote cytotoxicity at 70.5 h reported for CC(C)Oc1ccccc1CNC(=O)N(C)C(C)CS(C)(=O)=O (centres undefined) please.
Output: 16.1

Task: For the compound Cc1cc(NC2CCN(c3ccccc3)C2)n2ncnc2n1 (centres undefined) , give its measured cytotoxicity at 70.5 h value.
Output: -5.01

Task: Output cytotoxicity at 70.5 h of `COc1ccc(Nc2ccc(C#N)cn2)cc1N1CCCC1=O`
Output: 5.76

Task: Consider the compound CCCC(O)CN1CCC(=O)N(CCOC)Cc2cc3c(cc21)OCO3 (centres undefined) . State its measured cytotoxicity at 70.5 h.
Output: 18.9

Task: Name the recorded cytotoxicity at 70.5 h of the compound listed here: Cc1csc(N2CCN(CC(=O)Nc3cccnc3)CC2C)n1 (centres undefined)
Output: 2.59

Task: Return the recorded cytotoxicity at 70.5 h value; entry: `C[C@H]1CC[C@H](C(=O)N2CCC(n3cc(C4(O)CCCC4)nn3)CC2)CC1`
Output: -16.2

Task: Tell us which cytotoxicity at 70.5 h value is on record for COCCN(Cc1ccncc1)C(=O)C1COc2ccccc2C1 (centres undefined)
Output: -6.32
